molecular target: Hck (UniProt P08631); test: phosphorylation enrichment, bacterial display (enrichment ratio); higher = better substrate or ligand; peptides without Tyr show the background
Sequence (P08631 whole entry, looked up): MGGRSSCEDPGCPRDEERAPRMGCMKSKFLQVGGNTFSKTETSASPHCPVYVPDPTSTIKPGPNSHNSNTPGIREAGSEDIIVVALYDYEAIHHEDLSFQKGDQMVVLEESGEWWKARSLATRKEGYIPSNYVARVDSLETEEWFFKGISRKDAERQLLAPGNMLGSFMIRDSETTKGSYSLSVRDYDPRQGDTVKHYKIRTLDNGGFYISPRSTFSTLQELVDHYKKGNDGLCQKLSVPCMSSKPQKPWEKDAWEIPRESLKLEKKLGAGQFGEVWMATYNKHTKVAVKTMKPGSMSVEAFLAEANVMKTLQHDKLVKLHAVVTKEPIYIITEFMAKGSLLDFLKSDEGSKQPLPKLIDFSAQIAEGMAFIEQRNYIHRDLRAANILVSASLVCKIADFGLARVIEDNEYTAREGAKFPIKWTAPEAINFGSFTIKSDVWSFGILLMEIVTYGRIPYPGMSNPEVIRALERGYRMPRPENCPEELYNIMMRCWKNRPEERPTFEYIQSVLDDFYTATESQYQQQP
Here the recorded phosphorylation enrichment is given for each entry.
// return just the number, without any unit appended

[
  {
    "SEQUENCE_STRING": "EVVGRYSVHNA [MLH1_Y183]",
    "phosphorylation enrichment": 0.488
  },
  {
    "SEQUENCE_STRING": "GQAPGYSYTAA [CYCS_Y47]",
    "phosphorylation enrichment": 0.502
  },
  {
    "SEQUENCE_STRING": "KIFPEYLSNWT [AIFM1_Y347_L344F]",
    "phosphorylation enrichment": 0.488
  },
  {
    "SEQUENCE_STRING": "GVTLLCYGRYN [ADGRD1_Y85_Y85C]",
    "phosphorylation enrichment": 0.508
  }
]

Query: Which phosphorylation enrichment reading was recorded for the sequence KFFRVYQGQQP [MUTYH_Y494_V490F] ?
Result: 0.495

###

target: Hck (UniProt P08631); assay: phosphorylation enrichment, bacterial display (enrichment ratio); higher = better substrate or ligand; peptides without Tyr show the background
MEASUREMENT_KIND: phosphorylation enrichment
// return just the number, without any unit appended

Observe how each entry below is paired with its result.
[
  {
    "SEQUENCE_STRING": "TVSSDYLHPQY [CCPG1_Y569_F566S]",
    "phosphorylation enrichment": 0.407
  },
  {
    "SEQUENCE_STRING": "FGGLRYGFGVL [KRTAP20-2_Y13_YF]",
    "phosphorylation enrichment": 0.399
  },
  {
    "SEQUENCE_STRING": "DLQDENDFKCK [STAT1_Y170_Y170N]",
    "phosphorylation enrichment": 0.602
  },
  {
    "SEQUENCE_STRING": "LPPGTYPSDFT [UNC5B_Y511_A516T]",
    "phosphorylation enrichment": 0.613
  }
]

Query: Which phosphorylation enrichment reading was recorded for the sequence GYQPDYGQPAG [SYP_Y278] ?
Result: 0.409

###

Here the recorded SH2 binding enrichment is given for each entry.
molecular target: c-Src SH2; assay: SH2 binding enrichment of the phosphorylated peptide, bacterial display (enrichment ratio); higher = better substrate or ligand; peptides without Tyr show the background;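 note: peptide library displayed on the E. coli surface as eCPX fusions, selected cells deep-sequenced, score is each peptide's frequency after selection divided by its frequency in the input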
// return just the number, without any unit appended

[
  {
    "SEQUENCE_STRING": "FRQLPYCPSVE [CTNND2_Y508_Q507P_YF]",
    "SH2 binding enrichment": 0.458
  },
  {
    "SEQUENCE_STRING": "PLDGEYLTLQI [TP53_Y327_F328L]",
    "SH2 binding enrichment": 0.504
  },
  {
    "SEQUENCE_STRING": "EHTTLYSNNST [KANSL1_Y223]",
    "SH2 binding enrichment": 0.651
  },
  {
    "SEQUENCE_STRING": "YSNKLHYQLEQ [PDPR_Y109_Y109H]",
    "SH2 binding enrichment": 0.606
  },
  {
    "SEQUENCE_STRING": "LLKANYELLNA [POLR3A_Y714_K713N]",
    "SH2 binding enrichment": 1.51
  }
]

Query: Which SH2 binding enrichment reading was recorded for the sequence SARSAYQEAID [SFN_Y151_M155I] ?
Result: 1.06

meta.source: the supplement of paper PMC10065799
